Source listed as ChEMBL document CHEMBL4219147.

# Lookup of reported fold change (FC) keyed by entry
System: L6
Assay: Activation of AMPK in differentiated Sprague-Dawley rat L6 myotube cells assessed as increase in glucose consumption at 10 uM after 12 hrs by colorimetric assay relative to control
Format: cell-based
// return just the number, without any unit appended

Known fold change (FC) results, listed for orientation:
CCCCc1cc2c(s1)CC1c3cc4c(cc3CCN1C2)OCO4 (centres undefined)	2.9
c1ccc(Cc2cc3c(s2)CC2c4cc5c(cc4CCN2C3)OCO5)cc1 (centres undefined)	2.4

Ask: Identify measured fold change (FC) corresponding to CCc1cc2c(s1)CC1c3cc4c(cc3CCN1C2)OCO4 (centres undefined)
Reply: 2.2

Ask: Identify measured fold change (FC) corresponding to c1cc2c(s1)CC1c3cc4c(cc3CCN1C2)OCO4 (centres undefined)
Reply: 1.3

----------
Species: Rattus norvegicus
Test: Activation of AMPK in Sprague-Dawley rat primary hepatocytes assessed as inhibition of gluconeogenesis by measuring glucose production at 20 uM after 6 hrs by colorimetric assay (reference value: 100 +/- 3.5%)
Parameters: scale not given: the % may be the effect or the level left
EXPERIMENTAL_ENDPOINT: Activity (%)
The reply should be a number in %, with the unit left off.

Known Activity results, listed for orientation:
COc1ccc(OC)c2c1CC1c3cc(Cc4ccc(C)cc4)sc3CCN1C2 (centres undefined)	55.7
COc1ccc(OC)c2c1CC1c3cc(Cc4ccc(F)cc4)sc3CCN1C2 (centres undefined)	60.6
COc1cccc(Cc2cc3c(s2)CCN2Cc4c(OC)ccc(OC)c4CC32)c1 (centres undefined)	38.1
COc1ccc(OC)c2c1CC1c3cc(Cc4ccc(N5CCCCC5)cc4)sc3CCN1C2 (centres undefined)	43
COc1ccc(OC)c2c1CC1c3cc(Cc4cccc(C)c4)sc3CCN1C2 (centres undefined)	47.5

Ask: Identify measured Activity corresponding to COc1ccc(OC)c2c1CC1c3cc(C(C)c4ccccc4)sc3CCN1C2 (centres undefined)
Reply: 36

Ask: Identify measured Activity corresponding to C=CCOc1ccc(Cc2cc3c(s2)CCN2Cc4c(OC)ccc(OC)c4CC32)cc1 (centres undefined)
Reply: 49

Ask: Identify measured Activity corresponding to CCCCc1cc2c(s1)CC1c3cc4c(cc3CCN1C2)OCO4 (centres undefined)
Reply: 53.7

Ask: Identify measured Activity corresponding to c1ccc(Cc2cc3c(s2)CC2c4cc5c(cc4CCN2C3)OCO5)cc1 (centres undefined)
Reply: 40.9

----------
Species on record: Rattus norvegicus
Assay: Activation of AMPK in Sprague-Dawley rat primary hepatocytes assessed as inhibition of gluconeogenesis by measuring glucose production at 5 uM after 6 hrs by colorimetric assay (reference value: 100 +/- 3.5%)
Parameters: scale not given: the % may be the effect or the level left
# Lookup of reported Activity keyed by entry
The reply should be a number in %, with the unit left off.

Known Activity results, listed for orientation:
CCCCc1cc2c(s1)CC1c3cc4c(cc3CCN1C2)OCO4 (stereo not given)	58.3
COc1ccc(OC)c2c1CC1c3cc(Cc4ccc(C)cc4)sc3CCN1C2 (stereo not given)	73.3
COc1cccc(Cc2cc3c(s2)CCN2Cc4c(OC)ccc(OC)c4CC32)c1 (stereo not given)	73.2
COc1ccc(OC)c2c1CC1c3cc(Cc4cccc(C)c4)sc3CCN1C2 (stereo not given)	82.7
c1ccc(Cc2cc3c(s2)CC2c4cc5c(cc4CCN2C3)OCO5)cc1 (stereo not given)	59.5
C=CCOc1ccc(Cc2cc3c(s2)CCN2Cc4c(OC)ccc(OC)c4CC32)cc1 (stereo not given)	58.7
COc1ccc(OC)c2c1CC1c3cc(Cc4ccc(F)cc4)sc3CCN1C2 (stereo not given)	96.7
COc1ccc(OC)c2c1CC1c3cc(Cc4ccc(N5CCCCC5)cc4)sc3CCN1C2 (stereo not given)	51.6

Ask: Identify measured Activity corresponding to COc1ccc2cc3[n+](cc2c1OC)CCc1cc2c(cc1-3)OCO2 [BERBERINE CHLORIDE]
Reply: 57.6

Ask: Identify measured Activity corresponding to COc1ccc(OC)c2c1CC1c3cc(C(C)c4ccccc4)sc3CCN1C2 (stereo not given)
Reply: 43.4
